target-under-test: EGFR del746-750 T790M (Homo sapiens, UniProt P00533, DEL746-750/T790M)
Sequence (P00533 with tags, fused parts or gaps DEL746-750/T790M limits assumed): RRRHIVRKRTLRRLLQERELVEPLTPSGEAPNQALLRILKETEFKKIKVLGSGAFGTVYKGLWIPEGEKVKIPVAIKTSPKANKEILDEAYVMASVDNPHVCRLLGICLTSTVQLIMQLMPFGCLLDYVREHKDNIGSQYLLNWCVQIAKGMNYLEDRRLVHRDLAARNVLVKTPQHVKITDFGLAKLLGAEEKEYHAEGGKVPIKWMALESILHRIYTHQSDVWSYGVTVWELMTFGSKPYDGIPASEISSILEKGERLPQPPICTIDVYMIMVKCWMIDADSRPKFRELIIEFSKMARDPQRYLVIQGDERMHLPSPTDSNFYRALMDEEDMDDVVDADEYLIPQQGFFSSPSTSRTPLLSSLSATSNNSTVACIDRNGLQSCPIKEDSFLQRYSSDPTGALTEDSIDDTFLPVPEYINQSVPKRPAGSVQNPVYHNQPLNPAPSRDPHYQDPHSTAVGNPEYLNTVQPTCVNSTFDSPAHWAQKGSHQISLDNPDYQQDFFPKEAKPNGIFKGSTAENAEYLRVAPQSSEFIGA
procedure-text: EGFR del746-750 T790M biochemical assay (Caliper mobility shift)
stated-conditions: 5 μM ATP; apparent Ki (Morrison fit) converted by Cheng-Prusoff, Km of ATP 2.1 μM; read-out: EGFR(T790M/d746-750) Ki
outcome-measure: pKi
Keep in mind that pKi stands for -log10 of concentration in molar terms.

The examples below pair each entry with its known result.
- compound: "CCC(C)n1nc(N2CC3(COC3)C2)c2cnc(Nc3ccnc(OCC(C)(C)S(C)(=O)=O)n3)cc21 (racemic) [Example 97]"
  target-under-test: "EGFR del746-750 T790M (Homo sapiens, UniProt P00533, DEL746-750/T790M)"
  outcome-measure: "pKi"
  experimental-value: 8.28
- compound: "CC(C)n1nc(N2CCC3(CNC(=O)C3)C2)c2cnc(Nc3ccnc(-c4cnn(S(=O)(=O)C5CC5)c4)n3)cc21 (stereo not shown) [Example 115]"
  target-under-test: "EGFR del746-750 T790M (Homo sapiens, UniProt P00533, DEL746-750/T790M)"
  outcome-measure: "pKi"
  experimental-value: 9.05
- compound: "CC(C)n1nc(N2CCN(C(=O)CO)CC2)c2cnc(Nc3ccnc(N4CCC(C)(O)CC4)n3)cc21 [Example 135]"
  target-under-test: "EGFR del746-750 T790M (Homo sapiens, UniProt P00533, DEL746-750/T790M)"
  outcome-measure: "pKi"
  experimental-value: 7.33

Query string: Recall and state the measured pKi for COC1CCN(c2nccc(Nc3cc4c(cn3)c(N3CC5(COC5)C3)nn4C(C)C)n2)CC1 [Example 2] .
Result string: 8.01

Query string: For the compound CC(C)n1nc(N2CCN(C)C2=O)c2cnc(Nc3ccnc(-c4cnn(S(=O)(=O)C5CC5)c4)n3)cc21 [Example 83] , give its measured pKi value.
Result string: 8.92

Query string: Query pKi for CCN1CCN(c2nn(C(C)C)c3cc(Nc4ccnc(-c5cnn(S(=O)(=O)C6CC6)c5)n4)ncc23)CC1 [Example 118]
Result string: 8.96

Query string: State its pKi: CC(C)n1nc(C#N)c2cnc(Nc3ccnc(-c4cnn(S(=O)(=O)C5CC5)c4)n3)cc21 [Example 93]
Result string: 7.18

Query string: Output pKi of CCC(=O)N1CCN(c2nn(C(C)C)c3cc(Nc4ccnc(N5CCC(C)(O)CC5)n4)ncc23)CC1 [Example 134]
Result string: 7.47

Query string: Report pKi, nothing else, for this compound: CC1CN(c2nn(C(C)C)c3cc(Nc4ccnc(N5CC[C@H](O)[C@H](F)C5)n4)ncc23)C(=O)N1 (relative stereo) [Example 127]
Result string: 8.22

Query string: Give reported pKi value for CC(C)n1nc(N2CC[C@H](O)C2)c2cnc(Nc3ccnc(-c4cnn(S(=O)(=O)C5CC5)c4)n3)cc21 [Example 123]
Result string: 9.22

---

target-under-test: EGFR del746-750 T790M (Homo sapiens, UniProt P00533, DEL746-750/T790M)
procedure-text: EGFR del746-750 T790M biochemical assay (Caliper mobility shift)
stated-conditions: 5 μM ATP; apparent Ki (Morrison fit) converted by Cheng-Prusoff, Km of ATP 2.1 μM; read-out: EGFR(T790M/d746-750) Ki
Output satisfied for records whose Ki is lower than 2 nM, not satisfied for records at or above 2 nM.

Some solved cases for reference:
- compound: "CC(C)n1nc(NC(C)(C)C#N)c2cnc(Nc3ccnc(N4CC[C@H](O)[C@H](F)C4)n3)cc21 (racemic)"
  assigned-label: "not satisfied"
- compound: "CC(C)n1nc(NC(C)(C)C(N)=O)c2cnc(Nc3ccnc(N4CC[C@H](O)[C@H](F)C4)n3)cc21 (racemic)"
  assigned-label: "not satisfied"
- compound: "CC(n1nc(N2CC[C@@H](O)C2)c2cnc(Nc3ccnc(N4CC[C@](C)(O)[C@H](F)C4)n3)cc21)C(F)(F)F (relative stereo)"
  assigned-label: "not satisfied"
- compound: "CCS(=O)(=O)n1cc(-c2nccc(Nc3cc4c(cn3)c(N3CC(C(=O)N(C)C)C3)nn4C(C)C)n2)cn1"
  assigned-label: "satisfied"

Query string: Confirm or reject: Ki of CCC(C)n1nc(N2CC[C@H](C(N)=O)C2)c2cnc(Nc3ccnc(N4CCC(C)(O)CC4)n3)cc21 (stereo partly shown) lies strictly below 2 nM
Result string: not satisfied

Query string: Is Ki strictly under 2 nM for the entry CC[C@@H](C)n1nc(N2CC3(COC3)C2)c2cnc(Nc3ccnc(N4CC[C@](C)(O)[C@H](F)C4)n3)cc21 (single isomer, unassigned) ?
Result string: not satisfied

Query string: Please let me know if CC[C@@H](C)n1nc(N2CC[C@@H](O)C2)c2cnc(Nc3ccnc(N4CCC5(CC4)CNC(=O)CO5)n3)cc21 (relative stereo) shows Ki below 2 nM.
Result string: not satisfied

Query string: Decide: Ki of CCC(C)n1nc(N2CC(C(C)(C)O)C2)c2cnc(Nc3ccnc(N4CC[C@@H](O)[C@@H](F)C4)n3)cc21 (single isomer, unassigned) strictly below 2 nM?
Result string: not satisfied

Query string: Given CC(C)n1nc(N2CCC(C(=O)N(C)C)C2)c2cnc(Nc3ccnc(-c4cnn(S(=O)(=O)C5CC5)c4)n3)cc21 (stereo not shown) , is recorded Ki strictly lower than 2 nM?
Result string: satisfied

Query string: Please determine if "CC(C)n1nc(N2CCC3(COC3)C2)c2cnc(Nc3ccnc(-c4cnn(S(=O)(=O)C5CC5)c4)n3)cc21" is below 2 nM in terms of Ki.
Result string: satisfied

Query string: Lab log: compare recorded Ki with 2 nM; is it strictly lower for "CC(C)n1nc(N2CC(C(C)(C)O)C2)c2cnc(Nc3ccnc(-c4cnn(S(=O)(=O)C5CC5)c4)n3)cc21" ?
Result string: satisfied

Query string: State whether 2 nM exceeds Ki recorded for CCC(C)n1nc(N2CCNC2=O)c2cnc(Nc3ccnc(N4CC[C@H](OC)[C@H](F)C4)n3)cc21 (mixture of isomers) .
Result string: satisfied

Query string: Does the reported Ki of CCS(=O)(=O)n1cc(-c2nccc(Nc3cc4c(cn3)c(NC3CCOC3)nn4C(C)C)n2)cn1 (stereo not shown) stay below 2 nM?
Result string: not satisfied

---

target-under-test: EGFR del746-750 T790M (Homo sapiens, UniProt P00533, DEL746-750/T790M)
procedure-text: EGFR del746-750 T790M biochemical assay (Caliper mobility shift)
stated-conditions: 5 μM ATP; apparent Ki (Morrison fit) converted by Cheng-Prusoff, Km of ATP 2.1 μM; read-out: EGFR(T790M/d746-750) Ki
outcome-measure: Ki
The reply should read as a number followed by its unit.

Query string: Note Ki for the molecule shown: CC(n1nc(N2CC3(COC3)C2)c2cnc(Nc3ccnc(N4CCC(C)(O)CC4)n3)cc21)C(F)(F)F (stereo not shown)
Result string: 11.4 nM

Query string: Return value of Ki for input "CC(C)n1nc(N2CCN(C(=O)C(C)(C)O)CC2)c2cnc(Nc3ccnc(N4CCC(C)(O)CC4)n3)cc21" , no commentary.
Result string: 75.5 nM

Query string: Consider the molecule "CC(C)n1nc(N2CC(O)(CO)C2)c2cnc(Nc3ccnc(-c4cnn(S(=O)(=O)C5CC5)c4)n3)cc21" and give its recorded Ki.
Result string: 0.7 nM

Query string: Entry CCC(C)n1nc(N2C[C@@H](F)[C@@H](N)C2)c2cnc(Nc3ccnc(N4CCC(C)(O)CC4)n3)cc21 (relative stereo) needs its Ki filled in; supply it.
Result string: 2.1 nM

Query string: Please look at this molecule and report its Ki: CC1CNC(=O)N1c1nn(C(C)C)c2cc(Nc3ccnc(N4CC[C@H](O)[C@H](F)C4)n3)ncc12 (relative stereo)
Result string: 15.5 nM

Query string: For "CC(C)n1nc(N2CC(C(=O)NCC(F)(F)F)C2)c2cnc(Nc3ccnc(-c4cnn(S(=O)(=O)C5CC5)c4)n3)cc21" , write its Ki.
Result string: 1.9 nM

Query string: Using known records, supply Ki for "CC(C)n1nc(N2CC3CCC(C2)O3)c2cnc(Nc3ccnc(-c4cnn(S(=O)(=O)C5CC5)c4)n3)cc21"
Result string: 3.1 nM

---

target-under-test: EGFR del746-750 T790M (Homo sapiens, UniProt P00533, DEL746-750/T790M)
procedure-text: EGFR del746-750 T790M biochemical assay (Caliper mobility shift)
stated-conditions: 5 μM ATP; apparent Ki (Morrison fit) converted by Cheng-Prusoff, Km of ATP 2.1 μM; read-out: EGFR(T790M/d746-750) Ki
outcome-measure: Ki
# include the unit after the value

Below, 8 compounds whose answers are already recorded.
- compound: "CC(C)n1nc(N2CC(C)(O)C2)c2cnc(Nc3ccnc(-c4cnn(S(=O)(=O)C5CC5)c4)n3)cc21"
  Ki: "1.2 nM"
- compound: "CC(C)n1nc(N2CC3(COC3)C2)c2cnc(Nc3ccnc(N4CCC(O)C(C)(C)C4)n3)cc21 (stereo not drawn)"
  Ki: "1.6 nM"
- compound: "CC(C)n1nc(N2CCO[C@@H](CO)C2)c2cnc(Nc3ccnc(N4CCC(O)C(F)C4)n3)cc21 (mixture of isomers)"
  Ki: "10.3 nM"
- compound: "CC(C)n1nc(N2CC(C)(C)NC2=O)c2cnc(Nc3ccnc(N4CCC(O)C(F)C4)n3)cc21 (racemic)"
  Ki: "4.3 nM"
- compound: "CC(C)n1nc(N2CC(N)CC2=O)c2cnc(Nc3ccnc(N4CCC(C)(O)CC4)n3)cc21 (stereo not drawn)"
  Ki: "29.1 nM"
- compound: "CC(C)n1nc(N2CC[C@@H](O)C2)c2cnc(Nc3ccnc(N4CCC(C)(O)CC4)n3)cc21"
  Ki: "9 nM"
- compound: "CO[C@H]1CCN(c2nccc(Nc3cc4c(cn3)c(N3CC5(COC5)C3)nn4C(C)C)n2)C[C@H]1F (racemic)"
  Ki: "3.9 nM"
- compound: "CC[C@H](C)n1nc(N2CC[C@@H](O)C2)c2cnc(Nc3ccnc(N4CC[C@](C)(O)[C@H](F)C4)n3)cc21 (relative stereo)"
  Ki: "2.9 nM"

Query string: Note Ki for the compound shown: CC(C)n1nc(N2CCC(O)C2)c2cnc(Nc3ccnc(N4CC[C@@H](O)[C@@H](F)C4)n3)cc21 (single isomer, unassigned)
Result string: 2.7 nM

Query string: Dear colleague, please send me the reported Ki for CC(C)n1nc(NC2CNC(=O)C2)c2cnc(Nc3ccnc(N4CCC(C)(O)CC4)n3)cc21 (stereo not drawn) when you can.
Result string: 29.2 nM

Query string: Look up and report measured Ki for this entry: "CC(C)n1nc(N2CC3(CN(CC(F)(F)F)C3)C2)c2cnc(Nc3ccnc(-c4cnn(S(=O)(=O)C5CC5)c4)n3)cc21"
Result string: 4.6 nM

Query string: Identify the reported Ki for the following entry. CC(n1nc(N2CC[C@@H](O)C2)c2cnc(Nc3ccnc(N4CCC(C)(O)CC4)n3)cc21)C(F)(F)F (stereo partly drawn)
Result string: 11.3 nM

Query string: Identify measured Ki corresponding to "CC(C)n1nc(NC(C)(C)C)c2cnc(Nc3ccnc(-c4cnn(S(=O)(=O)C5CC5)c4)n3)cc21"
Result string: 106 nM

Query string: For the compound "CC(C)n1nc(N2CC(O)C2)c2cnc(Nc3ccnc(-c4cnn(S(=O)(=O)C5CC5)c4)n3)cc21" , report Ki.
Result string: 0.8 nM
